pKi listing for selected compounds.
- measured.target: Melanocortin receptor 4 (Homo sapiens, UniProt P32245)
- Sequence (P32245 whole entry): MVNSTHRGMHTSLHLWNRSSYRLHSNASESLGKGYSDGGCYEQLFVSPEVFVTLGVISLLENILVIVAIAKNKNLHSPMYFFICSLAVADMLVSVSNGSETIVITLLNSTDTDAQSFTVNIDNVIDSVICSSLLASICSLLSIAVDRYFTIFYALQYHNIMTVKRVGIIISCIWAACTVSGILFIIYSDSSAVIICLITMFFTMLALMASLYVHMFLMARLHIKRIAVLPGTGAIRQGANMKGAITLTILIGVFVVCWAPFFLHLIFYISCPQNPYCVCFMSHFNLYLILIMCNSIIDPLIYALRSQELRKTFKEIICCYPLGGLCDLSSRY
pKi: −log10 of the molar value. Bridge positions count the residues as written; N and C are the ends. Square brackets hold non-standard residues; d marks the D form. Peptide text beside a SMILES is read from it. Pen = CC(C)(S)[C@H](N)C(=O)O; Nle = CCCC[C@H](N)C(=O)O

Answered examples (2):
Looking for the measured pKi of CCCC[C@H](NC(=O)[C@@H](NC(=O)[C@@H](N)Cc1ccc(O)cc1)C(C)C)C(=O)N[C@@H]1C(=O)N[C@@H](Cc2c[nH]cn2)C(=O)N[C@@H](Cc2ccccc2)C(=O)N[C@@H](CCCN=C(N)N)C(=O)N[C@@H](Cc2c[nH]c3ccccc23)C(=O)N[C@H](C(=O)N[C@@H](CCCN=C(N)N)C(=O)N[C@@H](Cc2ccccc2)C(=O)NCC(N)=O)CSSC1(C)C (H-YV[Nle][Pen]HFRWCRFG-NH2; disulfide 4-9) , can you help?
< 5.00

Next record, please: CCCC[C@H](NC(=O)[C@@H](NC(=O)[C@@H](N)Cc1ccc(O)cc1)C(C)C)C(=O)N[C@H]1CSSC[C@H](C(=O)N[C@@H](CCCN=C(N)N)C(=O)N[C@@H](Cc2ccccc2)C(=O)NCC(N)=O)NC(=O)[C@H](Cc2c[nH]c3ccccc23)NC(=O)[C@H](CCCN=C(N)N)NC(=O)[C@H](Cc2ccccc2)NC(=O)[C@H](Cc2c[nH]cn2)NC1=O
< 5.00

---
Field request: pKi | item: CC(C)[C@H](NC(=O)[C@@H](N)Cc1ccc(O)cc1)C(=O)N[C@@H]1C(=O)NCC(=O)N[C@@H](Cc2cnc[nH]2)C(=O)N[C@@H](Cc2ccccc2)C(=O)N[C@@H](CCCNC(=N)N)C(=O)N[C@@H](Cc2c[nH]c3ccccc23)C(=O)N[C@H](C(=O)N[C@@H](CCCNC(=N)N)C(=O)N[C@@H](Cc2ccccc2)C(=O)NCC(N)=O)CSSC1(C)C
7.92
